target: Recombinant human IKK2 (residues 1-737) (Homo sapiens); construct: Recombinant human IKK2 (residues 1-737) was expressed in baculovirus as a C-terminal GST-tagged fusion protein; GST (C); experiment: IKK2 Assay (TR-FRET); details: IKK2 5 nM, GST-IκBα substrate 25 nM, ATP 1 μM, 30 minutes at room temperature
Sequence (O14920 1-737): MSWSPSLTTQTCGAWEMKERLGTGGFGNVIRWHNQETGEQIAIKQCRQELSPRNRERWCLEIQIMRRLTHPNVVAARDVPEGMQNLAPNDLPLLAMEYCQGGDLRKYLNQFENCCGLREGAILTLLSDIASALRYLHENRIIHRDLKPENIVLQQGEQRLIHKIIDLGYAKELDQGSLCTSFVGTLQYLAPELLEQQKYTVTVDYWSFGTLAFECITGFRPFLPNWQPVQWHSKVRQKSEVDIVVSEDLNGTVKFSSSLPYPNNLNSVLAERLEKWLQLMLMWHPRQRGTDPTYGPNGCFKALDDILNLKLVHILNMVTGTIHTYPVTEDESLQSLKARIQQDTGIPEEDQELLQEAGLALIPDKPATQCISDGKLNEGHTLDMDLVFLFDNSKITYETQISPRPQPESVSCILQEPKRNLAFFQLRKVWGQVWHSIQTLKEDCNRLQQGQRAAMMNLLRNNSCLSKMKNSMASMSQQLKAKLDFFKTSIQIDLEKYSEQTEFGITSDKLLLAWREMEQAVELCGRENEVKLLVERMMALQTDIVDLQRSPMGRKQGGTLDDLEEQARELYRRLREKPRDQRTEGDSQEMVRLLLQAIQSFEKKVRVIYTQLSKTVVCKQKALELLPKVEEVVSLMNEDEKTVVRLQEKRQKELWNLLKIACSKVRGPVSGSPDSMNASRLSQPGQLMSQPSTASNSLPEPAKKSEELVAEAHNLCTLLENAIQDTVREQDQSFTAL
Measured IC50 accompanies every entry in the list below.

Look over these answered cases.
INSERT INTO measurements (molecule, result) VALUES
  ('NC(=O)c1cc(-c2ccc(Cl)cc2)cc2cc[nH]c12 [Example 7]', '< 15.8 µM'),
  ('NC(=O)c1cc(Br)cc2c(C3CCNCC3)c[nH]c12 [Intermediate 30]', '< 15.8 µM');

Then there is this molecule:
Item NC(=O)c1cc(Br)cc2cc[nH]c12 [Intermediate 7, 5-bromo-1H-indole-7-carboxamide] has what recorded IC50?
< 15.8 µM
